Measured OD450 values are reported for all entries that follow.
# measured on: T1, Human FOLR1 Protein His Tag (ACRO-FO1-H52H1) (human, UniProt P15328 25-233)
# T1 construct: not shown: His tag
# assay method text: ELISA, supernatant diluted 25x
Please reply with the value in numeric form only.

[[record]]
binder = "F100 (antibody, V domains shown, also called clone F100; anti-FOLR1 antibody F100) VH: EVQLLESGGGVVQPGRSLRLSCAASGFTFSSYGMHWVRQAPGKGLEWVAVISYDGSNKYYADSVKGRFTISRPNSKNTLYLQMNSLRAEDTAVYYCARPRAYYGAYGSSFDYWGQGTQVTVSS VL: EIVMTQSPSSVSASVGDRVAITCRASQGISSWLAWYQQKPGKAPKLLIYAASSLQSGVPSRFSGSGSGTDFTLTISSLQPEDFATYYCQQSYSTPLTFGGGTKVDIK"
meas_value = 1.18


# binder F123 (antibody, V domains shown, also called clone F123; anti-FOLR1 antibody F123) VH: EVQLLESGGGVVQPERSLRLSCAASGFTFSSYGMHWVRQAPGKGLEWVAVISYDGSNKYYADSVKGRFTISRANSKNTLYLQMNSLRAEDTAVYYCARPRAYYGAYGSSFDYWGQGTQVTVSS VL: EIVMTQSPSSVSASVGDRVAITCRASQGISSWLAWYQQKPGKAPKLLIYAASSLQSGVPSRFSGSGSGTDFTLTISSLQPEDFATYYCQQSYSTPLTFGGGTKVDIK ; its OD450 = 1.33

# binder F1 (antibody, V domains shown, also called clone F1; anti-FOLR1 antibody F1) VH: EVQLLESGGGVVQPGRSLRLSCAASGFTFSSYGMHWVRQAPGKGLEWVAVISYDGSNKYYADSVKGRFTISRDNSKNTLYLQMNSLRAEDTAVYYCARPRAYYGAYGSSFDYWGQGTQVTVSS VL: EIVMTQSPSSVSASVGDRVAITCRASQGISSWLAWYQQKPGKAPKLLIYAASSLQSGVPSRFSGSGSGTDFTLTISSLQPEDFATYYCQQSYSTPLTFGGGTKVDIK ; its OD450 = 1.18
